Origin of measurements: the Immune Epitope Database (IEDB)

# Target under test: HLA-B*40:01
# Assay notes: IEDB peptide-MHC binding, purified MHC/direct/fluorescence; filed as Kd, often an IC50 or EC50 that approximates it; bounds were set here for any values at or beyond the usual limits of such assays
# Condition set: source organism: Vibrio vulnificus
pKd: −log10 of the molar value.
Observable: pKd

Query: # value lookup — system HLA-B*40:01, readout pKd, item VNGVKGIQF
Reply: ≤ 4.70

----------
# Target under test: HLA-B*44:02
# Assay notes: IEDB peptide-MHC binding, purified MHC/direct/fluorescence; filed as Kd, often an IC50 or EC50 that approximates it; bounds were set here for any values at or beyond the usual limits of such assays
# Condition set: source organism: Influenza A virus (A/Duck/Shantou/2144/00(H9N2))
pKd: −log10 of the molar value.
Observable: pKd

Query: Give the measured pKd of GEETIEERF .
Reply: ≤ 4.70

----------
# Target under test: HLA-C*15:02
# Assay notes: IEDB peptide-MHC binding, purified MHC/direct/fluorescence; filed as Kd, often an IC50 or EC50 that approximates it; bounds were set here for any values at or beyond the usual limits of such assays
# Condition set: source organism: Orthohantavirus dobravaense
Observable: pKd
Give bare numbers, as −log10 of the molar value.

Query: Give the measured pKd of ISNQEPLKL .
Reply: 8.05

----------
# Target under test: HLA-A*31:01
# Assay notes: IEDB peptide-MHC binding, purified MHC/direct/fluorescence; filed as Kd, often an IC50 or EC50 that approximates it; bounds were set here for any values at or beyond the usual limits of such assays
# Condition set: source organism: Yersinia pestis
pKd: −log10 of the molar value.
Observable: pKd

Query: Give the measured pKd of VPRVHNQPQ .
Reply: ≤ 4.70

----------
# Target under test: HLA-B*08:02
# Assay notes: IEDB peptide-MHC binding, purified MHC/direct/fluorescence; filed as Kd, often an IC50 or EC50 that approximates it; bounds were set here for any values at or beyond the usual limits of such assays
# Condition set: source organism: Bacillus cereus H3081.97
Observable: Kd

Query: Give the measured Kd of TVIRFWHAM .
Reply: ≥ 20 µM

----------
# Target under test: HLA-A*03:01
# Assay notes: IEDB peptide-MHC binding, purified MHC/competitive/radioactivity; filed as Kd, often an IC50 or EC50 that approximates it; bounds were set here for any values at or beyond the usual limits of such assays
# Condition set: source organism: Vaccinia virus Copenhagen
Observable: pKd
Numbers only, as −log10 of the molar value.

Here is how some sequences turned out for pKd.
STSPTRTWK
8.17
KLKHRDGFTK
7.43
FLIVSLCPT
5.59

We next turn to a different sequence, shown below.
Query: Give the measured pKd of KSVLDIISSK .
Reply: 7.61

----------
# Target under test: HLA-A*29:02
# Assay notes: IEDB peptide-MHC binding, purified MHC/competitive/radioactivity; filed as Kd, often an IC50 or EC50 that approximates it; bounds were set here for any values at or beyond the usual limits of such assays
# Condition set: source organism: Mammarenavirus juninense
For each entry below, report its Kd value.
Answers are plain numbers, in nM.

LYDVIPVTY
375

We next turn to a different sequence, shown below.
Query: Give the measured Kd of ASAHVRQSEY .
Reply: 102

----------
# Target under test: HLA-A*23:01
# Assay notes: IEDB peptide-MHC binding, purified MHC/competitive/radioactivity; filed as Kd, often an IC50 or EC50 that approximates it; bounds were set here for any values at or beyond the usual limits of such assays
# Condition set: source organism: Mammarenavirus choriomeningitidis
pKd: −log10 of the molar value.
Observable: pKd

Here is how some sequences turned out for pKd.
VKMPTHRHI
≤ 4.11
WCSQTDYQY
≤ 4.11

We next turn to a different sequence, shown below.
Query: # value lookup — system HLA-A*23:01, readout pKd, item WCSQTDYQYL
Reply: 4.97
